target: TYRO3/SKY (Homo sapiens, UniProt Q06418); assay: Kinase screening, HotSpot assay (Reaction Biology)
Sequence (Q06418 41-890): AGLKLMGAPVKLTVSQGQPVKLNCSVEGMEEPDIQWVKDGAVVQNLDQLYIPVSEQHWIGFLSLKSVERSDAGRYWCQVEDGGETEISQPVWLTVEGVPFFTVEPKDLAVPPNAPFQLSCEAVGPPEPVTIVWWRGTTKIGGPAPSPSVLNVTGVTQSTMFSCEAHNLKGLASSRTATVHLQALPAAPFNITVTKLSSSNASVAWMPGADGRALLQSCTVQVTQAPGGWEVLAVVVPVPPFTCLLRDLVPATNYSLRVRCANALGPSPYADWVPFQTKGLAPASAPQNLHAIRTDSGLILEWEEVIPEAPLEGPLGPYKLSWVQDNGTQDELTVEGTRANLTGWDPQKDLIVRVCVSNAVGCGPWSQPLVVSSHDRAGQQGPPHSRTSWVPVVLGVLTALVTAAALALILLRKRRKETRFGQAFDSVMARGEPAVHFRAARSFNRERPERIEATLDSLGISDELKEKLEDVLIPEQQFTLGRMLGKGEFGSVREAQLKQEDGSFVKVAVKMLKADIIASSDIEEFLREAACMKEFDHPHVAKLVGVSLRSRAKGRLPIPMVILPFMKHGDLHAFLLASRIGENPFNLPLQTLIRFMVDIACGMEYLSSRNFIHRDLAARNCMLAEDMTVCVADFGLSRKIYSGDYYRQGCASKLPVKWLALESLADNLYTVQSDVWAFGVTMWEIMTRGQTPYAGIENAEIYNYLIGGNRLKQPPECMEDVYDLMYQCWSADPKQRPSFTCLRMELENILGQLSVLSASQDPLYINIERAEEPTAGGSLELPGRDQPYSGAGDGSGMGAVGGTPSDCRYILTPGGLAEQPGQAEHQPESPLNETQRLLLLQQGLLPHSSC
Measure name: IC50 (µM)
Number in µM, nothing else.

Recorded result, Cc1cnc(Nc2ccc(OCCN3CCCC3)cc2)nc1NCc1ccco1 [Compound 1] , IC50: 10.7

* * *

target: CYP 3A4 (Homo sapiens); test: CYP450 assay (luminescence); assay type: in vitro ADME; details: CYP 3A4 enzyme with substrate, compound at 10 μM, read-out: inhibitory activity against human CYP 3A4
Sequence (P08684 whole entry): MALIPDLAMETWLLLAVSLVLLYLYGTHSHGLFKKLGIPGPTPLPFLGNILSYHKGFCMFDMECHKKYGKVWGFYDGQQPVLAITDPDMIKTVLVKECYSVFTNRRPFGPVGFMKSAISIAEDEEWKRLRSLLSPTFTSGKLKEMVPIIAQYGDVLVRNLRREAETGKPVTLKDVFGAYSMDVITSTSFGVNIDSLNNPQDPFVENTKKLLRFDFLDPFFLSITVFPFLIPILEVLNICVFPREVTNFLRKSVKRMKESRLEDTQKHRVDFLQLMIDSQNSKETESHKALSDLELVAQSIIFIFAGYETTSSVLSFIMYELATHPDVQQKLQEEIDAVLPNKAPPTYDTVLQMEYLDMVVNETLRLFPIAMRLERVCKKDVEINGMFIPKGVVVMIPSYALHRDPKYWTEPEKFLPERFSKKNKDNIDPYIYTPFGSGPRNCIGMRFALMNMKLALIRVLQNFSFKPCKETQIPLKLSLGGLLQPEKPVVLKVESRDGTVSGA
Measure name: inhibition at 20 min, 10 µM (%)
Write the value in % as a bare number.

inhibition at 20 min, 10 µM in this record for Clc1cnc(Nc2ccc(OCCN3CCCC3)cc2)nc1NCc1ccco1 : 22.1

* * *

target: AXL (Homo sapiens)
Sequence (P30530 26-894): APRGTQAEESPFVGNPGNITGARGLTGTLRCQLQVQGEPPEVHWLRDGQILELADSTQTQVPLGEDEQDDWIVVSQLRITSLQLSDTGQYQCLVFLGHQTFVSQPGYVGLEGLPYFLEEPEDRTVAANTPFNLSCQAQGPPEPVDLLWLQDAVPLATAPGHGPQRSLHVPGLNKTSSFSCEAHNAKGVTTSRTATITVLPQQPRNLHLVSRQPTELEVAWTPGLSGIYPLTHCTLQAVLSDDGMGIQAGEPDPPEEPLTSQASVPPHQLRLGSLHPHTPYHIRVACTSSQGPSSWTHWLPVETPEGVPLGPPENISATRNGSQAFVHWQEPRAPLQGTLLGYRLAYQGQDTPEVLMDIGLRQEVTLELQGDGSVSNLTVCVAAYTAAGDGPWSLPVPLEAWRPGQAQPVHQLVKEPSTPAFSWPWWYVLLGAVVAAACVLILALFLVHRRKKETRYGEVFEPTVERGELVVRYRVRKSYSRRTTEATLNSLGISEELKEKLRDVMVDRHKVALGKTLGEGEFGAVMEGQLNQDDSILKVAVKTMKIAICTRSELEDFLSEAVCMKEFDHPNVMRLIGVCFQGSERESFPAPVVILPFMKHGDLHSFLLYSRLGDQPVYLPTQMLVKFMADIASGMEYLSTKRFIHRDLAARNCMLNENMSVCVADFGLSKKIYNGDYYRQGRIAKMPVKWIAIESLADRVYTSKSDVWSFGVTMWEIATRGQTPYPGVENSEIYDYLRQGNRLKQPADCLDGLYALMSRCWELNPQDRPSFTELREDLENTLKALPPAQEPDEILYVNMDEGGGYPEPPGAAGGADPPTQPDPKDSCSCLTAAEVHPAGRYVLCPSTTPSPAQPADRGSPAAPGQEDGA
Measure name: IC50 (nM)
Numbers only; they are read as nM.

Sample Cc1cnc(Nc2ccc(OCCN3CCCC3)cc2)nc1NCc1ccco1 [Compound 1] , system: AXL (Homo sapiens). Its IC50 is 443

* * *

biological target: FLT3 (ITD)-NPOS (Homo sapiens, UniProt P36888); experiment: FLT3 mutant enzyme activity, HotSpot assay; conditions: ATP 10 μM
Measure name: pIC50
Give only the number. pIC50 is defined as minus log10 of concentration in molar units.

The reported FLT3 (ITD)-NPOS (Homo sapiens, UniProt P36888) pIC50 of Clc1cnc(Nc2ccc(OCCN3CCCC3)cc2)nc1NCc1ccco1 is 8.35

* * *

molecular target: JAK2(V617F) (Homo sapiens, UniProt O60674, V617F); assay: Kinase screening, HotSpot assay (Reaction Biology)
Sequence (O60674 whole entry V617F): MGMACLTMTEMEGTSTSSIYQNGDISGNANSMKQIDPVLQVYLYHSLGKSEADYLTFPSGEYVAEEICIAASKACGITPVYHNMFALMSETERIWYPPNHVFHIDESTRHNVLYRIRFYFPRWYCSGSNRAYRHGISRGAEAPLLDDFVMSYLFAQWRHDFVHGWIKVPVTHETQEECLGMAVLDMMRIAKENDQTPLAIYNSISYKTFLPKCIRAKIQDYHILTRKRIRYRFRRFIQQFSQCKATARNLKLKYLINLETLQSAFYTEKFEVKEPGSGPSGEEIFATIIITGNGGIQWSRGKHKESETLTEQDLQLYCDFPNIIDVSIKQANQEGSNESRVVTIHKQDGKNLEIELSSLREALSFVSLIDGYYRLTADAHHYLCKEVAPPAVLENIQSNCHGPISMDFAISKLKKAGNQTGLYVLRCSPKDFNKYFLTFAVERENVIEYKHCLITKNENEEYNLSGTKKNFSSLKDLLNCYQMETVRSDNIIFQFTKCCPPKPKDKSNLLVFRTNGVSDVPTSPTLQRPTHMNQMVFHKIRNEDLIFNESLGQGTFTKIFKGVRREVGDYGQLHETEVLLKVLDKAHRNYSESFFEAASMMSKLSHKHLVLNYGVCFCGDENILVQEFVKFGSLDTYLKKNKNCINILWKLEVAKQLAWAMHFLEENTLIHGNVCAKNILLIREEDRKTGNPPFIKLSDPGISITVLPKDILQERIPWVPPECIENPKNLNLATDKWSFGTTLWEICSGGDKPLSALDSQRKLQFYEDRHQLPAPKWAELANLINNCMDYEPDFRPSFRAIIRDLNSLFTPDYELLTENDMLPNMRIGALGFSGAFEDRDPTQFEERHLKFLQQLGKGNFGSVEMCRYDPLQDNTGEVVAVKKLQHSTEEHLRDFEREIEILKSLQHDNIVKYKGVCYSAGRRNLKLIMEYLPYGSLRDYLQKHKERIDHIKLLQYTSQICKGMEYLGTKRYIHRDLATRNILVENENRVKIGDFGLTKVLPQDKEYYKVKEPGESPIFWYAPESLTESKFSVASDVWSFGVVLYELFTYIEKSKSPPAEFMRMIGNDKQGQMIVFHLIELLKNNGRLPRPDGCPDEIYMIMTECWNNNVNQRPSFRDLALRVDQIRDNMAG
This listing pairs molecules with measured pIC50.
On this scale, pIC50 is minus log10 of a concentration expressed in M (mol/L).

For this molecule ( Fc1cnc(Nc2ccc(OCCN3CCCC3)cc2)nc1NCc1ccco1 ), measured pIC50 is 6.62

Field pIC50 (entry Cc1cnc(Nc2ccc(OCCN3CCCC3)cc2)nc1NCc1ccco1 ) reads 7.02

The reported value for Clc1cnc(Nc2ccc(OCCN3CCCC3)cc2)nc1NCc1ccco1 in terms of pIC50 is 7.59

* * *

target: FLT3 (ITD) (Homo sapiens); assay: FLT3 mutant enzyme activity, HotSpot assay; conditions: ATP 10 μM
Measure name: IC50 (nM)
Your answer is read as nM, so omit the unit and give the number.

Clc1cnc(Nc2ccc(OCCN3CCCC3)cc2)nc1NCc1ccco1 has a reported IC50 of 1.5

* * *

biological target: UniProt P08684; test: CYP450 assay (luminescence); format: in vitro ADME; conditions: compound at 10 μM, read-out: inhibitory activity against human CYP 3A4
Measure name: inhibition at 20 min, 10 µM (%)
Please reply with the bare figure in % and do not write the unit itself.

Given item CC(=O)N1CCN(c2ccc(OCC3COC(Cn4ccnc4)(c4ccc(Cl)cc4Cl)O3)cc2)CC1 (stereo not shown) [ketoconazole, reference compound] , the value recorded as its inhibition at 20 min, 10 µM is 98.7

* * *

molecular target: PKCmu/PRKD1 (Homo sapiens, UniProt Q15139); assay: Kinase screening, HotSpot assay (Reaction Biology)
Sequence (Q15139 whole entry): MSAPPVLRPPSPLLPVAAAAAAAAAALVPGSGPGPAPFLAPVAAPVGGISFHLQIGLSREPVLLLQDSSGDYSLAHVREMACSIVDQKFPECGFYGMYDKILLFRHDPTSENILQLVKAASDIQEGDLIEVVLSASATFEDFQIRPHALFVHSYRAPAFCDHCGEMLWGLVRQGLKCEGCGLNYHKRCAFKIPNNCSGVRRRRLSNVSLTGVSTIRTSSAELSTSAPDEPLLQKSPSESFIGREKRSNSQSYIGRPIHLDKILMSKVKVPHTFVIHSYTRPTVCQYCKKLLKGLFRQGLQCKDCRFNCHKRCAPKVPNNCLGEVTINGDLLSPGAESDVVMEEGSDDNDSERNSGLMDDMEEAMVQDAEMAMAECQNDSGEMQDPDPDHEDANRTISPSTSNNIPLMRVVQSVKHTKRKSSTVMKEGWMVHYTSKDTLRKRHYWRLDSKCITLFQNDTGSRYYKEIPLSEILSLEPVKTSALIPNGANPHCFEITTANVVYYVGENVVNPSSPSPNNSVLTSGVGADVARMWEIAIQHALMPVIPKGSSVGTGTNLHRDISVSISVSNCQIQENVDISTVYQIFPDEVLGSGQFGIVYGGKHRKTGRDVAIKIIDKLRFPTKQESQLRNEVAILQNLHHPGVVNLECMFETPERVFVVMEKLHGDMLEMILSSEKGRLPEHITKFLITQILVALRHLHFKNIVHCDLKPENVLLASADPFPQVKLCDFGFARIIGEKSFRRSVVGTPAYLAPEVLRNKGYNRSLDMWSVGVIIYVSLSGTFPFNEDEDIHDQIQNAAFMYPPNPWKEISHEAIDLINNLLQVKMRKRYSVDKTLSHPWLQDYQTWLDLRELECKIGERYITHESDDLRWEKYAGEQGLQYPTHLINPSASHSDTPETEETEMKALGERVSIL
Measure name: IC50 (nM)
Reply numerically in nM, unit not repeated.

compound Cc1cnc(Nc2ccc(OCCN3CCCC3)cc2)nc1NCc1ccco1 [Compound 1] , IC50 observed: 167

* * *

molecular target: FLT3 (D835Y) (Homo sapiens, UniProt P36888, D835Y); construct: purchased Reaction Biology Corporation; experiment: FLT3 mutant enzyme activity, HotSpot assay; assay type: biochemical; conditions: ATP 10 μM
Measure name: IC50

Notebook: Clc1cnc(Nc2ccc(OCCN3CCCC3)cc2)nc1NCc1ccco1 , IC50 read as < 1 nM

Data origin, for the record: patent US10683282B2
